- Procedure Summary: Measurement of stability of anisomycin derivatives in rat plasma
- Type: in vitro ADME
- Setup Conditions: rat plasma, 37° C., residual amount by HPLC; read-out: Half-life
Parameter Measured: Half-life
Phrase the answer as number then unit, nothing more needed.

Input line: What value of measured Half-life is listed for COc1ccc(CC2NCC(O)C2OC(C)=O)cc1 (single isomer, unassigned) ?
Output line: 3 min

---

- Test system: FM3A cells
- Procedure Summary: Inhibitory activity on proliferation of FM3A culture
- Format: cell-based, mouse
- Setup Conditions: Mus musculus, read-out: IC50 (50% proliferation inhibition concentration)
Parameter Measured: IC50 (µg/mL)
Provide the reading as a plain figure in µg/mL.

Guide cases for IC50, answers given:
{"Compound": "CCCCCC(=O)OC1CNC(Cc2ccc(OC)cc2)C1OC(N)=O (stereo not drawn)", "Unit Annotation": "µg/mL", "Reported Value": 0.039}
{"Compound": "CCCCCCC(=O)OC1CNC(Cc2ccc(OC)cc2)C1OC(N)=O (stereo not drawn)", "Unit Annotation": "µg/mL", "Reported Value": 0.03}
{"Compound": "CNC(=O)OC1C(O)CNC1Cc1ccc(OC)cc1 (stereo not drawn)", "Unit Annotation": "µg/mL", "Reported Value": 0.06}
{"Compound": "COCOC1C(O)CNC1Cc1ccc(OC)cc1 (stereo not drawn)", "Unit Annotation": "µg/mL", "Reported Value": 0.062}

API: the following record is the query input.
Input line: Which IC50 is listed for COc1ccc(CC2NCC(OC(C)=O)C2OC(N)=O)cc1 (stereo not drawn) ?
Output line: 0.039
